These entries and their values trace back to patent US12473304B2.

- TARGET_DESC: human PAD4 (hPAD4) (Homo sapiens (Human))
- Sequence (Q9UM07 whole entry): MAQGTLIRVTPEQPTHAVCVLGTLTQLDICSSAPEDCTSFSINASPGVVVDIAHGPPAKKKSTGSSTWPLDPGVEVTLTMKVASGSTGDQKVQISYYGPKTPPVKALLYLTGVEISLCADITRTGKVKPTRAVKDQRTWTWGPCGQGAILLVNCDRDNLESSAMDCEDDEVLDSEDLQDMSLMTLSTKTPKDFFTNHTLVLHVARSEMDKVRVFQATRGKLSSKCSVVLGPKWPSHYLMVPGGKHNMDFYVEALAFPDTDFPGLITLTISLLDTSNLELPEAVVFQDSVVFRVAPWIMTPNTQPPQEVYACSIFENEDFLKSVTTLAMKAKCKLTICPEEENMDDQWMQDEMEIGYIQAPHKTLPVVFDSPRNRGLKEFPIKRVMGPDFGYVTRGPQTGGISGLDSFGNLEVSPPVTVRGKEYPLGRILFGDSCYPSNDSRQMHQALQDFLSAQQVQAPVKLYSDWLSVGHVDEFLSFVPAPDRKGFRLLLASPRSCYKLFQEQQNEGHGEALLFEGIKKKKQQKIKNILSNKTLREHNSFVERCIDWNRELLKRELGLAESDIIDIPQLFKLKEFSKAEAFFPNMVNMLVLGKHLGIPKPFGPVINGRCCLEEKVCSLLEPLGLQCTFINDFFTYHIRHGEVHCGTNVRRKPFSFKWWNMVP
- EXPERIMENT_DESCRIPTION: RFMS Human PAD4 Functional Assay 1
- TEST_CONDITIONS: RFMS assay 1; 5 nM hPAD4, 250 μM BAEE substrate, 50 μM calcium, 37° C.
Measured pIC50 of individual entries
Notebook: values listed as pIC50 are -log10 of the concentration (mol/L).

// worked examples, pIC50 included
compound="Cc1c(-c2cc3ccc(-c4ccc(CNS(C)(=O)=O)cc4)cc3n2CC2CC2)nn2cc(C(=O)N3C[C@H](N)C[C@@H](F)C3)ccc12 [Example 370]" reading=6.89
compound="COc1cc(C(=O)N2CCC[C@@H](N)C2)cn2nc(-c3cc4cccc(OCC5CNC(=O)C5)c4n3CC3CC3)c(C)c12 (single isomer, unassigned) [Example 562]" reading=6.85
compound="COc1cc(C(=O)N2CCC[C@@H](N)C2)cn2nc(-c3cc4cccc(C5CN(C(=O)C6CC(O)(C(F)(F)F)C6)C5)c4n3CC3CC3)c(C)c12 (mixture of isomers) [Example 515]" reading=7.22
compound="COc1cc(C(=O)N2C[C@H](N)C[C@@H](F)C2)cn2nc(-c3cc4cccc(OCC5CNC(=O)C5)c4n3CC3CC3)c(C)c12 (single isomer, unassigned) [Example 563]" reading=7.15

input: Requested read-out: pIC50. Entry: Cc1c(-c2cc3ccc(-c4cccc(O)c4Cl)nc3n2CC2CC2)nn2cc(C(=O)N3CCC[C@@H](N)C3)cc(F)c12 [Example 278]
output: 6.41

input: Would you kindly share the measured pIC50 for Cc1c(-c2cc3ccc(-c4ccc(CNS(C)(=O)=O)cc4)cc3n2CC2CC2)nn2cc(C(=O)N3CCC[C@@H](N)C3)ccc12 [Example 342] ?
output: 6.03

input: Entry under review: COc1cc(C(=O)N2CC3CCC2[C@@H]3N)cn2nc(-c3cc4ccc(-c5ccc6c(c5)CNC6=O)nc4n3CC3CC3)c(C)c12 (stereo partly drawn) [Example 5] . Reported pIC50?
output: 7.57

====

- TARGET_DESC: human PAD4 (hPAD4) (Homo sapiens (Human))
- EXPERIMENT_DESCRIPTION: RFMS Human PAD4 Functional Assay 1
- Type: biochemical
- TEST_CONDITIONS: RFMS assay 1; 5 nM hPAD4, 250 μM BAEE substrate, 50 μM calcium, 37° C.
IC50 strictly under 200 nM means satisfied; at 200 nM or over means not satisfied.

Examples from the recorded data:
compound="Cc1c(-c2cc3cc(F)cc(C4CCN(C(=O)[C@H]5CC[C@@H](O)CC5)CC4)c3n2CC2CC2)nn2cc(C(=O)N3C[C@H](N)C[C@@H](F)C3)ccc12 [Example 486]" class_label=satisfied
compound="Cc1c(-c2cc3ccc(-c4cccc(O)c4F)nc3n2CC2CC2)nn2cc(C(=O)N3C[C@H](N)C[C@@H](F)C3)cc(F)c12 [Example 55]" class_label="not satisfied"
compound="Cc1c(-c2cc3ccc(-c4ccc5c(c4)C(=O)NC5)nc3n2CC2CC2)nn2cc(C(=O)N3CCC[C@@H](N)C3)ccc12 [Example 315]" class_label="not satisfied"

input: Does the reported IC50 of CC(=O)N1CCC(c2cc(F)cc3cc(-c4nn5cc(C(=O)N6C[C@H](N)C[C@@H](F)C6)ccc5c4C)n(CC4CC4)c23)CC1 [Example 507] stay below 200 nM?
output: satisfied

input: Lab note: IC50 threshold 200 nM. Does this compound come in strictly under it? COc1cc(C(=O)N2CC3CCC2[C@@H]3N)cc2oc(-c3cc4ccc(-c5ccc(C(N)=O)c(F)c5)cc4n3CC3CC3)c(C)c12 (stereo partly drawn) [Example 152]
output: satisfied

input: Please check: IC50 for Cc1c(-c2cc3ccc(-c4ccc5cn[nH]c5c4)cc3n2CC2CC2)nn2cc(C(=O)N3CC4CCC3[C@@H]4N)ccc12 (stereo partly drawn) [Example 332] , strictly under 200 nM or not?
output: satisfied

input: Hello, is IC50 of the following compound strictly smaller than 200 nM? Cc1c(-c2cc3ccc(-c4ccc(C(N)=O)c(F)c4)nc3n2CC2CC2)nn2cc(C(=O)N3CC4CCC3[C@@H]4N)cnc12 (stereo partly drawn) [Example 112]
output: not satisfied

input: Consider Cc1c(-c2cc3cccc(C4CCN(C(=O)[C@@H](C)O)CC4)c3n2CC2CC2)nn2cc(C(=O)N3CC4CCC3[C@@H]4N)ccc12 (stereo partly drawn) [Example 473] . Does its IC50 lie strictly below 200 nM?
output: satisfied

input: # TODO verify IC50 < 200 nM strictly for this compound: COc1cc(C(=O)N2C[C@H](N)C[C@@H](F)C2)cn2nc(-c3cc4ccc(-c5cccc(CO)c5)cc4n3CC3CC3)c(C)c12 [Example 210]
output: not satisfied

input: Problem: For the compound COc1cc(C(=O)N2CCC[C@@H](N)C2)cn2nc(-c3cc4ccc(N5CCC(CC(=O)N(C)C)CC5)cc4n3CC3CC3)c(C)c12 [Example 250] , is IC50 under 200 nM?
output: satisfied
